System: HEK-CMV-Luc2-Hygro cells
Experiment: High-throughput genome-wide siRNA screen and validation screen for luciferase expression
Assay type: cell-based, human
Details: Table 4; primary screen, 72 h, negative control = 100%
Kind request: treat 80% as inclusive, so Viable cell density (%) at 80% or higher is class 1, anything lower is class 0.

Lookup: Check this substance for Viable cell density (%) at or above 80%: 127 (CCAACUACCUGAACGAUGATT; chemistry not given here; listed as Homo sapiens) [compound 127]
Found: class 0

Lookup: Does 171 (CCCUGUUCAUUAUAAGUCUTT; chemistry not given here; listed as Homo sapiens) [compound 171] have a reported Viable cell density (%) of at least 80%?
Found: class 1

Lookup: Please check the record 113 (GCAUCAGCUCACAACAAAATT; chemistry not given here; listed as Homo sapiens) [compound 113] and state if its Viable cell density (%) is at or above 80%.
Found: class 0

Lookup: Textbook exercise: given the entry 187 (AGAAAGCUUUGGGCAAAUATT; chemistry not given here; listed as Homo sapiens) [compound 187] , state whether its Viable cell density (%) is greater than or equal to 80%.
Found: class 0

Lookup: Reported Viable cell density (%) at or above 80%? 164 (GCAGGCACAUGGUUCCUCUTT; chemistry not given here; listed as Homo sapiens) [compound 164]
Found: class 1

Lookup: Hi team, for 198 (GCCUAGGAGUUAUCCUCUATT; chemistry not given here; listed as Homo sapiens) [compound 198] , is the recorded Viable cell density (%) at or above 80%?
Found: class 1

Lookup: Viable cell density (%) >= 80% for 130 (GGAGGAAUCUCGAAUGCGATT; chemistry not given here; listed as Homo sapiens) [compound 130] ?
Found: class 1

Lookup: API: above_or_equal(metric=Viable cell density (%), cutoff=80%) for item 182 (CAGUUACUUUCAAAACUCUTT; chemistry not given here; listed as Homo sapiens) [compound 182]
Found: class 1

Lookup: Given 195 (UGAAGAUAAUCGAGAAAUATT; chemistry not given here; listed as Homo sapiens) [compound 195] , state whether its Viable cell density (%) is at least 80%.
Found: class 0

Lookup: Check this substance for Viable cell density (%) at or above 80%: 136 (AGGUUACAGAGGACUCAGATT; chemistry not given here; listed as Homo sapiens) [compound 136]
Found: class 0

Lookup: Could you please find out whether 158 (CUUCGACAGUACUUCCGGATT; chemistry not given here; listed as Homo sapiens) [compound 158] has Viable cell density (%) that meets 80% or exceeds it?
Found: class 1

Lookup: Hello, I need to know if 110 (CAAUGAUUCUUACCCUCAATT; chemistry not given here; listed as Homo sapiens) [compound 110] has measured Viable cell density (%) not below 80%. Thanks!
Found: class 0

###

System: HEK-CMV-Luc2-Hygro cells
Test: High-throughput genome-wide siRNA screen and validation screen for luciferase expression
Type: cell-based, human
Conditions: Table 4; primary screen, 72 h, negative control = 100%
Give Viable cell density (%) for every item shown.
Give your result in % as a bare value.

Lookup: Quote Viable cell density (%) reported for 149 (CGACCAUCAUGGAAAACAUTT; chemistry not given here; listed as Homo sapiens) [compound 149] please.
Found: 57.472

Lookup: Give the reported value of Viable cell density (%) for this record: 197 (GACUCAGAGUAACAACGCATT; chemistry not given here; listed as Homo sapiens) [compound 197]
Found: 95.471

Lookup: Provide measured Viable cell density (%) value, entry: 111 (CAACCUUAUUAUCAUUGAATT; chemistry not given here; listed as Homo sapiens) [compound 111]
Found: 49.133

Lookup: Using known records, supply Viable cell density (%) for 199 (CUAACUACCCAGACCCUUATT; chemistry not given here; listed as Homo sapiens) [compound 199]
Found: 88.359

Lookup: Provide only the value of recorded Viable cell density (%) for 209 (GAACUUCACAAGUUCCUCATT; chemistry not given here; listed as Homo sapiens) [compound 209]
Found: 84.418

Lookup: Consider the substance 144 (GGAUCACGCAGCUCAAGAUTT; chemistry not given here; listed as Homo sapiens) [compound 144] and give its recorded Viable cell density (%).
Found: 91.538

Lookup: Give the value of Viable cell density (%) reported for the following: 183 (CAACAGAUCAGAGAACAAATT; chemistry not given here; listed as Homo sapiens) [compound 183]
Found: 92.429

Lookup: Note down Viable cell density (%) recorded for 163 (CCAGCGAUACAACUCCUAUTT; chemistry not given here; listed as Homo sapiens) [compound 163]
Found: 83.636

Where do the numbers come from? From patent US20160319277A1.
